All values here come from patent US11339124B2.

# Experiment notes: Kinetic solubility (turbidimetric method)
# Format: physicochemical
# Condition parameters: 10 mM PBS pH 7.4, 2% DMSO, test range 3.125-200 μM, 2 h at 37° C.
# Lookup of reported Solubility (kinetic) keyed by entry

# count of solved cases: 3
| Test smiles | Result |
| --- | --- |
| Cl.O=S(=O)(NCCN1CCNCC1)c1ccc(NC2CCCCC2)c(NCc2ccncc2)c1 | >200 µM |
| Nc1cc(S(=O)(=O)NCCN2CCNCC2)ccc1NC1CCCCC1 | >200 µM |
| CN1CCN(CCNS(=O)(=O)c2ccc(NC3CCCCC3)c(NCc3ccncc3)c2)CC1 | >200 µM |

From here, focus on the item given below.
[Q] Give Solubility (kinetic) for O=S(=O)(NCCN1CCOCC1)c1ccc(NC2CCCCC2)c(NCc2ccccc2)c1
[A] 50 to 100 µM
